- Measured On: Rap guanine nucleotide exchange factor 3 (Homo sapiens) (UniProt O95398)
- Sequence (O95398 whole entry, looked up): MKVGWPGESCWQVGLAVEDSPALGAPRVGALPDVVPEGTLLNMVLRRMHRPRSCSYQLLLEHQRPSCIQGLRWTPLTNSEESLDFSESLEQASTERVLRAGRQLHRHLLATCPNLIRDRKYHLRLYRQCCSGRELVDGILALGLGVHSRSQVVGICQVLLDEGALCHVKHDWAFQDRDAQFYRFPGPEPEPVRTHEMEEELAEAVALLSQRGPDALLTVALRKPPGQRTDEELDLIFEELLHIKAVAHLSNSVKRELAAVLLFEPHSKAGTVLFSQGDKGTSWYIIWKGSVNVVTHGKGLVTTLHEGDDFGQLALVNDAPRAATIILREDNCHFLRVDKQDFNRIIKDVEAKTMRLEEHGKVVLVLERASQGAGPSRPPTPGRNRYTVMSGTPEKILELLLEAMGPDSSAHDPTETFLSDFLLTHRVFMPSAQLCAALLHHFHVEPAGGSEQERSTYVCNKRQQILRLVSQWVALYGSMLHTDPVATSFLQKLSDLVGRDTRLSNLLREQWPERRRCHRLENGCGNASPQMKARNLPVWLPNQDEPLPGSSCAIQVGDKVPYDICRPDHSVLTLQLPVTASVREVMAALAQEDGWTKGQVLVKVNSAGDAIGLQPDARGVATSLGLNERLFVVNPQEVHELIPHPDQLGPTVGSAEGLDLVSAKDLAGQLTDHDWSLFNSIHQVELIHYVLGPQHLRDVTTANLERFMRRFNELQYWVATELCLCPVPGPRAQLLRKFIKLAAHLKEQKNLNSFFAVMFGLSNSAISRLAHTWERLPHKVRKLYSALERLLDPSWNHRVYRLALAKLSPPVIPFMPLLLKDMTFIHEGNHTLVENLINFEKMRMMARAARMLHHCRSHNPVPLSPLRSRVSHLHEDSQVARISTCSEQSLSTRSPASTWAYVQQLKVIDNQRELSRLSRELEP
- Assay Text: Counterscreen qHTS for antagonist of cAMP-regulated guanine nucleotide exchange factor 3 (EPAC1) (AID 1645888);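 note: fluorescence loss as bound BODIPY-GDP is released from Rap1B; % of control where 0% means no effect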
- Experimental Setup: Rap1B-BODIPY-GDP nucleotide exchange, fluorescence; series mostly up to 154 µM
Inconclusive results are not listed. The source made the active and inactive calls. Calls come from the whole dose curve; as a rule, active = well fitted inhibition curve with a large enough effect; inconclusive = small, poorly fitted or top-dose-only effect; inactive = no such curve, though single readings can be large or run the other way.
Assay Endpoint: activity change, negative = inhibition

[[record]]
compound = "CCN(CC)c1ccc2cc(C(=O)Nc3ccccn3)c(=O)oc2c1"
measured_on = "Rap guanine nucleotide exchange factor 3 (Homo sapiens) (UniProt O95398)"
measured = "inactive"

[[record]]
compound = "O=C1CSC(c2ccc(Cl)cc2Cl)N1c1ccccn1 (centres undefined)"
measured_on = "Rap guanine nucleotide exchange factor 3 (Homo sapiens) (UniProt O95398)"
measured = "inactive"

[[record]]
compound = "O=C1OC(c2ccccc2)(c2ccccc2)c2ccsc21"
measured_on = "Rap guanine nucleotide exchange factor 3 (Homo sapiens) (UniProt O95398)"
measured = "inactive"

[[record]]
compound = "COc1ccc(-c2nn(-c3ccccc3)cc2/C=C2/SC(=S)N(CCC(=O)O)C2=O)cc1"
measured_on = "Rap guanine nucleotide exchange factor 3 (Homo sapiens) (UniProt O95398)"
measured = "inactive"

[[record]]
compound = "CCOC(=O)N(C)c1c(CC)nc2c(OCc3ccc(C(F)(F)F)cc3)cccn12"
measured_on = "Rap guanine nucleotide exchange factor 3 (Homo sapiens) (UniProt O95398)"
measured = "inactive"

[[record]]
compound = "COc1ccc(NC(=O)c2cccnc2NCCc2ccccc2)cc1"
measured_on = "Rap guanine nucleotide exchange factor 3 (Homo sapiens) (UniProt O95398)"
measured = "inactive"

[[record]]
compound = "Oc1c(C(c2ccccc2)N2CCN(c3ccccc3)CC2)sc2nc(-c3ccco3)nn12 (centres undefined)"
measured_on = "Rap guanine nucleotide exchange factor 3 (Homo sapiens) (UniProt O95398)"
measured = "inactive"

[[record]]
compound = "CCOc1cc(-c2c(C#N)c(N)nc3c2CCCC3C)ccc1O (centres undefined)"
measured_on = "Rap guanine nucleotide exchange factor 3 (Homo sapiens) (UniProt O95398)"
measured = "inactive"

[[record]]
compound = "O=C(CSc1ccc2ccccc2c1)Nc1ccc(S(=O)(=O)Nc2nccs2)cc1"
measured_on = "Rap guanine nucleotide exchange factor 3 (Homo sapiens) (UniProt O95398)"
measured = "-0.461% [at 30.8 µM] (inactive)"

[[record]]
compound = "CCCSc1nc(C)cc(C)c1S(=O)(=O)c1ccccc1C"
measured_on = "Rap guanine nucleotide exchange factor 3 (Homo sapiens) (UniProt O95398)"
measured = "inactive"

[[record]]
compound = "COc1cccc(C(=O)Oc2ccc(/C=N/Nc3ccc(C(=O)O)cc3)cc2OC)c1"
measured_on = "Rap guanine nucleotide exchange factor 3 (Homo sapiens) (UniProt O95398)"
measured = "inactive"

[[record]]
compound = "O=C1c2cccc3c(N4CCCCC4)ccc(c23)C(=O)N1c1ccccc1O"
measured_on = "Rap guanine nucleotide exchange factor 3 (Homo sapiens) (UniProt O95398)"
measured = "-4.8% [at 30.8 µM] (inactive)"

[[record]]
compound = "COc1cc(N)c(Cl)cc1C(=O)OCC(=O)c1ccc2c(c1)NC(=O)CO2"
measured_on = "Rap guanine nucleotide exchange factor 3 (Homo sapiens) (UniProt O95398)"
measured = "inactive"

[[record]]
compound = "CCC(=O)N1CCc2cc(CNC(=O)c3ccccc3C)ccc21"
measured_on = "Rap guanine nucleotide exchange factor 3 (Homo sapiens) (UniProt O95398)"
measured = "inactive"

[[record]]
compound = "COc1ccc2c(c1)C(=O)CCC2c1ccccc1 (centres undefined)"
measured_on = "Rap guanine nucleotide exchange factor 3 (Homo sapiens) (UniProt O95398)"
measured = "inactive"

[[record]]
compound = "Cc1cc(-c2nn(-c3ccccc3F)cc2CN2CCCC(O)C2)c(C)s1 (centres undefined)"
measured_on = "Rap guanine nucleotide exchange factor 3 (Homo sapiens) (UniProt O95398)"
measured = "-17.9% [at 30.8 µM] (inactive)"

[[record]]
compound = "Cc1ccc2oc(=O)c3cnn(CC(=O)NC4CCC(C)CC4)c3c2c1 (centres undefined)"
measured_on = "Rap guanine nucleotide exchange factor 3 (Homo sapiens) (UniProt O95398)"
measured = "inactive"

[[record]]
compound = "CC(=O)CCc1oc2c([N+](=O)[O-])cccc2c1-c1ccc(C)o1"
measured_on = "Rap guanine nucleotide exchange factor 3 (Homo sapiens) (UniProt O95398)"
measured = "inactive"

[[record]]
compound = "O=C1CC2(CCN(S(=O)(=O)c3ccccc3F)CC2)Oc2ccccc21"
measured_on = "Rap guanine nucleotide exchange factor 3 (Homo sapiens) (UniProt O95398)"
measured = "inactive"

[[record]]
compound = "Cn1c(N)c(C(=O)CSc2nnc(-c3c[nH]c4ccccc34)n2C2CC2)c(=O)[nH]c1=O"
measured_on = "Rap guanine nucleotide exchange factor 3 (Homo sapiens) (UniProt O95398)"
measured = "2.97% [at 30.8 µM] (inactive)"

[[record]]
compound = "O=C(Cn1ccc(=O)[nH]c1=O)c1ccc([N+](=O)[O-])o1"
measured_on = "Rap guanine nucleotide exchange factor 3 (Homo sapiens) (UniProt O95398)"
measured = "-11.8% [at 30.8 µM] (inactive)"

[[record]]
compound = "COc1ccc(/C=C2\\C(=O)NC(=O)c3ccccc32)cc1OC"
measured_on = "Rap guanine nucleotide exchange factor 3 (Homo sapiens) (UniProt O95398)"
measured = "inactive"

[[record]]
compound = "Cc1ccc(/C=C(\\CCC(=O)O)c2nc3ccccc3s2)cc1[N+](=O)[O-]"
measured_on = "Rap guanine nucleotide exchange factor 3 (Homo sapiens) (UniProt O95398)"
measured = "-11.2% [at 30.8 µM] (inactive)"

[[record]]
compound = "CCc1nc2ccccc2c(C(=O)NCc2ccccc2)c1C"
measured_on = "Rap guanine nucleotide exchange factor 3 (Homo sapiens) (UniProt O95398)"
measured = "inactive"

[[record]]
compound = "Nc1c(C(=O)C2CC2)sc2nc(-c3cccs3)cc(C(F)(F)F)c12"
measured_on = "Rap guanine nucleotide exchange factor 3 (Homo sapiens) (UniProt O95398)"
measured = "inactive"

[[record]]
compound = "CCOC(=O)c1c(NC(=O)CSc2nnnn2-c2ccccc2OCC)sc2c1CC(C)(C)NC2(C)C"
measured_on = "Rap guanine nucleotide exchange factor 3 (Homo sapiens) (UniProt O95398)"
measured = "-5.37% [at 30.8 µM] (inactive)"

[[record]]
compound = "O=C1COc2ccc(C(=O)COC(=O)c3ccc([N+](=O)[O-])cc3Cl)cc2N1"
measured_on = "Rap guanine nucleotide exchange factor 3 (Homo sapiens) (UniProt O95398)"
measured = "inactive"

[[record]]
compound = "Cc1ccc(Sc2ncccc2C(=O)N(C)Cc2cccs2)c(C)c1"
measured_on = "Rap guanine nucleotide exchange factor 3 (Homo sapiens) (UniProt O95398)"
measured = "inactive"

[[record]]
compound = "CC1(c2ccccc2)CC(C)(C)N2C(=O)C(=O)c3cccc1c32 (centres undefined)"
measured_on = "Rap guanine nucleotide exchange factor 3 (Homo sapiens) (UniProt O95398)"
measured = "-4.27% [at 30.8 µM] (inactive)"

[[record]]
compound = "O=S(=O)(c1ccc2[nH]c3c(c2c1)CCCC3)N1CCCCC1"
measured_on = "Rap guanine nucleotide exchange factor 3 (Homo sapiens) (UniProt O95398)"
measured = "inactive"

[[record]]
compound = "O=C(CS(=O)(=O)c1ccccc1)c1cc2ccccc2oc1=O"
measured_on = "Rap guanine nucleotide exchange factor 3 (Homo sapiens) (UniProt O95398)"
measured = "-20.4% [at 30.8 µM] (inactive)"

[[record]]
compound = "CCc1nc2c(OCc3ccc(C(=O)N(C)C)cc3)cccn2c1N(C)C(=O)c1ccc(C)cc1"
measured_on = "Rap guanine nucleotide exchange factor 3 (Homo sapiens) (UniProt O95398)"
measured = "-28.5% [at 30.8 µM] (inactive)"

[[record]]
compound = "O=C1C=C(NCCc2cc(Br)c(O)c(Br)c2)C(=O)c2ncccc21"
measured_on = "Rap guanine nucleotide exchange factor 3 (Homo sapiens) (UniProt O95398)"
measured = "-20.2% [at 30.8 µM] (inactive)"

[[record]]
compound = "Cc1ccc(Cl)cc1NS(=O)(=O)c1ccccc1"
measured_on = "Rap guanine nucleotide exchange factor 3 (Homo sapiens) (UniProt O95398)"
measured = "0.85% [at 30.8 µM] (inactive)"

[[record]]
compound = "CC1CCc2c(sc3nc(SCC(=O)O)n(-c4ccccc4)c(=O)c23)C1 (centres undefined)"
measured_on = "Rap guanine nucleotide exchange factor 3 (Homo sapiens) (UniProt O95398)"
measured = "-13.5% [at 30.8 µM] (inactive)"

[[record]]
compound = "Cc1oc2cc(Br)c(O)c(Br)c2c1-c1ccccc1"
measured_on = "Rap guanine nucleotide exchange factor 3 (Homo sapiens) (UniProt O95398)"
measured = "inactive"

[[record]]
compound = "COc1ccc(Cn2c(=O)cc(C)[nH]c2=S)cc1"
measured_on = "Rap guanine nucleotide exchange factor 3 (Homo sapiens) (UniProt O95398)"
measured = "-27% [at 30.8 µM] (inactive)"

[[record]]
compound = "O=c1c(-c2ccc(F)cc2)[n+]([O-])c2ccccc2n1OCc1ccccn1"
measured_on = "Rap guanine nucleotide exchange factor 3 (Homo sapiens) (UniProt O95398)"
measured = "1.53% [at 30.8 µM] (inactive)"

[[record]]
compound = "COc1ccc(-n2c(O)c(/C=N/NS(=O)(=O)c3cc(C)ccc3C)c3ccccc3c2=O)cc1OC"
measured_on = "Rap guanine nucleotide exchange factor 3 (Homo sapiens) (UniProt O95398)"
measured = "inactive"

[[record]]
compound = "Cc1cc(C(=O)Cn2ncc(Cl)c(Cl)c2=O)c(C)n1CC(F)(F)F"
measured_on = "Rap guanine nucleotide exchange factor 3 (Homo sapiens) (UniProt O95398)"
measured = "-8.86% [at 30.8 µM] (inactive)"

[[record]]
compound = "CCOc1cccc(CNc2ccc(O)cc2)c1OCc1ccc(Cl)cc1"
measured_on = "Rap guanine nucleotide exchange factor 3 (Homo sapiens) (UniProt O95398)"
measured = "inactive"

[[record]]
compound = "Cc1ccc(Cl)cc1NC(=O)Nc1cn(CC(C)C)c(=O)c2ccccc12"
measured_on = "Rap guanine nucleotide exchange factor 3 (Homo sapiens) (UniProt O95398)"
measured = "inactive"

[[record]]
compound = "COc1ccccc1C(=O)Nc1ccccc1C(=O)N1C(C)CCCC1C (centres undefined)"
measured_on = "Rap guanine nucleotide exchange factor 3 (Homo sapiens) (UniProt O95398)"
measured = "inactive"

[[record]]
compound = "Cc1ccc(C2N(c3ccc(Cl)cc3)C(=O)N3CCCN23)cc1 (centres undefined)"
measured_on = "Rap guanine nucleotide exchange factor 3 (Homo sapiens) (UniProt O95398)"
measured = "inactive"

